The measured values listed here are drawn from patent US20240092930A1.

Reported pKd by item:
- testSystem: T1, recombinant human Trop-2-his protein (ACCESSION NO.: NP_002344.2, AA 1-274) (human, UniProt P09758 27-274)
- T1 construct: range 27-274; also called recombinant human Trop-2 protein; recombinant human Trop-2 extracellular domain; not shown: his tag
- T1 sequence (looked up): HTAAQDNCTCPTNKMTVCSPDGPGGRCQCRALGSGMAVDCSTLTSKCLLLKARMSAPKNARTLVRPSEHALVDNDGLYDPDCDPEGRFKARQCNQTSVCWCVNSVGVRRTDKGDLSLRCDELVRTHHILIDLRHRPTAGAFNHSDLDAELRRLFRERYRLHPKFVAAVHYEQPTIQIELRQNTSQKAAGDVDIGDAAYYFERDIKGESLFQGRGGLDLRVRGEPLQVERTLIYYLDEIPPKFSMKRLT
- testDetails: BLI, antibody on AHC sensor, Trop-2-his 60 nM
- Protocol: 5-6 days after cell transfection, culture supernatants were purified through ProA affinity chromatography column to obtain different humanized antibodies. Affinities of the obtained antibodies were determined by an assay including capturing Fc fragments of the antibodies with anti-human IgG Fc capture (AHC) biosensors using Octet QKe system instrument from Fortebio. […]
pKd field: float, defined as -log10 of concentration (mol/L).

>  <binder>
h4-3-14 (antibody, human IgG1, kappa, V domains shown) VH: EVQLVQSGPEVKKPGASVKVSCKASGFTFTDYVIGWVRQAPGQGLEWIGEIYLGSGTIYYAEKFKGRVTMTADTSTSTAYMELSSLRSEDTAVYYCARGSIFPFDYWGQGTLVTVSS VL: DIQLTQSPSSLSASVGDRVTITCSASSSVSYMYWYQQKPGKAPKLLIYDTSTLQSGVPSRFSGSGSGTDFTLTISSLQPEDFATYYCQQWSSYPYTFGQGTKLEIKR

>  <pKd>
9.24

$$$$

Kindly review the next binder as well.
Form: binder = h4-3-15 (antibody, human IgG1, kappa, V domains shown) VH: EVQLVQSGPEVKKPGASVKVSCKASGFTFTDYVIGWVRQAPGQGLEWIGEIYLGSGTIYYTQKFKGRVTMTADTSTSTAYMELSSLRSEDTAVYYCARGSIFPFDYWGQGTLVTVSS VL: DIQLTQSPSSLSASVGDRVTITCSASSSVSYMYWYQQKPGKAPKLLIYDTSTLQSGVPSRFSGSGSGTDFTLTISSLQPEDFATYYCQQWSSYPYTFGQGTKLEIKR ; pKd = 9.16
